# ASSAY_OVERVIEW: Cytotoxicity against HUVEC assessed as cell growth inhibition by MTT assay
# Assay type: toxicity, cell-based
# EXPERIMENTAL_CONTEXT: human
OBSERVED_PROPERTY: IC50 (µM)

CCOC(=O)c1cc2c(nc1C(F)(F)F)nn1c(C(F)(F)F)cc(C)nc21	88.2
CCOC(=O)c1cc2c(nc1C(F)(F)F)nn1c(-c3c(F)cc(OC)cc3F)cc(-c3cccs3)nc21	92.8
CCOC(=O)c1cc2c(nc1C(F)(F)F)nn1c(-c3ccccc3)cc(C)nc21	91.1
CCOC(=O)c1cc2c(nc1C(F)(F)F)nn1c(-c3ccc[nH]3)cc(-c3ccccc3)nc21	95.2
CCOC(=O)c1cc2c(nc1C(F)(F)F)nn1c(-c3ccc(F)cc3)cc(-c3cccs3)nc21	85.9
O=c1[nH]cc(F)c(=O)[nH]1	79.6
CCOC(=O)c1cc2c(nc1C(F)(F)F)nn1c(-c3ccc(OC(F)(F)F)cc3)cc(-c3cccs3)nc21	89.9
CCOC(=O)c1cc2c(nc1C(F)(F)F)nn1c(C)cc(C)nc21	99.2
CCOC(=O)c1cc2c(nc1C(F)(F)F)nn1c(-c3ccc(F)cc3)cc(-c3ccc(OC)cc3)nc21	86.4
CCOC(=O)c1cc2c(nc1C(F)(F)F)nn1c(-c3ccc([N+](=O)[O-])cc3)cc(-c3ccccc3)nc21	90.8
CCOC(=O)c1cc2c(nc1C(F)(F)F)nn1ccc(C)nc21	93.2
